measured_endpoint: melting point

Recorded melting point, per entry:
compound	melting point
CCOC(=O)OC1=C(c2c(C)cc(C)cc2C)C(=O)NC12CCN(N(C)C)CC2	162 to 166 °C
CCOC(=O)c1c(Nc2ccccc2)n[nH]c1C	160 to 164 °C
CCOC(=O)[C@@H](CCC(=O)N1c2ccccc2C[C@H]1C(=O)OCC)NC(=O)[C@H](CCCCNSc1ncccc1[N+](=O)[O-])NC(=O)OCc1ccc2c(c1)OCO2	130 to 135 °C
CCCCCCCCNc1nc(NCCCCC2CC(C)(C)N(OCC(C)(C)O)C(C)(C)C2)nc(NCCCCC2CC(C)(C)N(OCC(C)(C)O)C(C)(C)C2)n1	68 to 86 °C
O=C(CN1CCN(C(=O)c2cc(C(F)(F)F)cc(C(F)(F)F)c2)[C@H](Cc2c[nH]c3ccccc23)C1)N1CCN(C(c2ccccc2)(c2ccccc2)c2ccccc2)CC1	160 to 166 °C

IN: Field request: melting point | item: COC(=O)COC1C(NC(C)=O)C(OCc2ccccc2)OC(COCc2ccccc2)C1OC1OC(COCc2ccccc2)C(OCc2ccccc2)C(OCc2ccccc2)C1NC(C)=O (configuration not stated)
OUT: 221 to 223 °C

IN: One more compound: Cc1ccc(N(C)c2cccs2)cc1O
OUT: 131 to 133 °C

---

Listed below: melting point values for each entry.

molecule	result
CCCCCCCCCCCCCCCCCCN(CCCCCCCCCCCCCCCCCC)C(=O)c1cc(NS(=O)(=O)c2cnc(Cl)c(OC)c2)c2ccccc2c1O	85 to 87 °C
CCCCC1(CC)CS(=O)(=O)c2ccc(N(C)C)cc2C(c2cccc(NC(=O)COCCOCC(=O)NCc3ccc(N4C(=O)C(CCC(O)c5ccc(F)cc5)C4c4ccc(OC)cc4)cc3)c2)C1O (stereo not drawn)	116 to 125 °C

IN: // lookup melting point for CC(C)(C)OC(=O)NC(Cc1cc(I)c(Oc2cc(I)c(O)c(I)c2)c(I)c1)C(=O)O (stereo not drawn)
OUT: 212 °C

---

In this section we review reported melting point values for a set of compounds.

These solved cases illustrate the format of a correct answer.
compound	result
O=C(O)C1=Cc2cc(Br)ccc2NC1C(F)(F)F (stereo unspecified)	185 to 186 °C
CCOC(CN1C(=O)C2=C(c3cc4cc(C(C)(C)C)cc(C(C)(C)C)c4o3)N(CC(OCC)OCC)C(=O)C2=C1c1cc2cc(C(C)(C)C)cc(C(C)(C)C)c2o1)OCC	194 to 196 °C
N#Cc1ccc(C=Cc2ccc(OCc3ccc4ccccc4n3)cc2)cc1	116 to 118 °C

IN: Which melting point value is on record for CC(C)[C@H](NC(=O)N(C)Cc1nc2ccccc2[nH]1)C(=O)N[C@@H](Cc1ccccc1)[C@H](O)[C@H](O)[C@H](Cc1ccccc1)NC(=O)[C@@H](NC(=O)N(C)Cc1nc2ccccc2[nH]1)C(C)C ?
OUT: 107 to 109 °C

IN: Can you handle CCCCCCCCCCCC(=O)OC(CCCCCCCCCCC)CC(=O)NC(CCOP(=O)(Oc1ccccc1)Oc1ccccc1)C(=O)OCc1ccccc1 (stereo unspecified) next?
OUT: 31 to 32.1 °C

IN: Request: CCCCCCCCCCCCCCCCCCN(CCCCCCCCCCCCCCCCCC)C(=O)c1c(NS(=O)(=O)c2cccc(C(C)=O)c2)cc2ccccc2c1OC(=O)c1ccccc1
OUT: 91 to 93 °C
